system: P-gp (MDR1); assay: MDR1-MDCK Efflux Ratio Assay; assay type: in vitro ADME; conditions: dog, MDR1-MDCK cells, pH 7.4, read-out: MDR1-MDCK Efflux Ratio (B-A/A-B)
property_name: efflux ratio at 2 hr

P. CC(=O)Nc1ncc(CN2C[C@@]3(Cc4cc(N5C[C@H](C)O[C@@H](C)C5)ncc4O3)C[C@@H]2C)s1
Q. CC(=O)Nc1nc(F)c(CN2C[C@@]3(Cc4cc(N5CCOCC5)ncc4O3)C[C@@H]2C)s1
Exercise: Could you tell me which of P and Q has the lower efflux ratio at 2 hr reading? Could you answer with the label of the item you picked?
Key: Q
(Q: 9.3, P: 25)

P. COc1nccc2c1COC21C[C@H](C)N(Cc2cnc(NC(C)=O)s2)C1 (some centres unmarked)
Q. CC(=O)Nc1ncc(CN2C[C@@]3(Cc4cc(N5CCC5)ncc4O3)C[C@@H]2C)s1
Exercise: Parameter check: reported efflux ratio at 2 hr is higher for which label, P or Q ? Answer = label.
Key: Q
